Assign AC50 to each entry below.
- target.or.test.system: Adenosine receptor A1 (Homo sapiens, UniProt P30542); also: assay procedure not described here
- Sequence (P30542 whole entry): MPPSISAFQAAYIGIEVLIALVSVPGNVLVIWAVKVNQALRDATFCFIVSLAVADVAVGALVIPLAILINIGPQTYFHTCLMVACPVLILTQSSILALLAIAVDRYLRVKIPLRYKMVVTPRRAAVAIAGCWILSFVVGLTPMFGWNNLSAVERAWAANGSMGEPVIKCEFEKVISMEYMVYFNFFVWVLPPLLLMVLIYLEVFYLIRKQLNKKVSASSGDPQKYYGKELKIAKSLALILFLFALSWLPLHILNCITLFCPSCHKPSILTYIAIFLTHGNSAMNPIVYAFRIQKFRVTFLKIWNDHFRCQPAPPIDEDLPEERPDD

Use these answered entries as a reference point.
[[record]]
compound = "O=C1CN2Cc3c(ccc(Cl)c3Cl)N=C2N1 [ANAGRELIDE]"
readout = "AC50"
assay_result = "> 30 µM"

[[record]]
compound = "C[C@]12CC[C@H](O)CC1=CC[C@@H]1[C@@H]2CC[C@]2(C)C(c3cccnc3)=CC[C@@H]12"
readout = "AC50"
assay_result = "> 30 µM"


Please state AC50 for every compound in the list that follows.
1. CC1(C)C(C=C(Cl)Cl)C1C(=O)OCc1cccc(Oc2ccccc2)c1 (stereo not drawn)
2. CC1(C)C(/C=C/C=C/C=C/C=C2\N(CCCCS(=O)(=O)O)c3ccc4ccccc4c3C2(C)C)=[N+](CCCCS(=O)(=O)[O-])c2ccc3ccccc3c21 [INDOCYANINE GREEN ACID FORM]
3. COc1ccc(/C=C/C(=O)Nc2ccccc2C(=O)O)cc1OC
4. CNCC[C@H](Oc1cccc2ccccc12)c1cccs1
5. CC#CCn1c(N2CCC[C@@H](N)C2)nc2c1c(=O)n(Cc1nc(C)c3ccccc3n1)c(=O)n2C

Given back:
["> 10 µM", "22 µM", "> 30 µM", "> 30 µM", "> 30 µM"]

Asked: So what's the measured AC50 for this one? `Nc1ccn([C@@H]2O[C@H](CO)[C@@H](O)C2(F)F)c(=O)n1`
Given back: > 30 µM
